# tested.on: Acetylcholinesterase (Homo sapiens)
# method.notes: Acetylcholinesterase (AChE) small molecule antagonists: fluorescence cell-based qHTS assay (AID 1347398); further: nearly all actives have a fitted effect of over 50% in size
# settings: SH-SY5Y cells; AChE activity; series mostly up to 115 µM
Inconclusive results are not listed. The source made the active and inactive calls. The call rests on the fitted dose curve.
Would you mind answering with one of these outcomes? active, inactive

Task item: Could you please tell me the result logged for Cc1cc2c3c(c1)C(c1ccccc1)=N[C@@H](NC(=O)c1ccncc1)C(=O)N3CC2 in this assay?
Reply: inactive

Task item: Then this molecule: CN(C)c1ccc(N)cc1
Reply: active

Task item: Then this molecule: COCCC#N
Reply: inactive

Task item: Then this molecule: CCCN
Reply: inactive

Task item: Then this molecule: CCC(C)c1cccc(C(C)CC)c1O (configuration not stated)
Reply: inactive

Task item: Then this molecule: O=C(N[C@H]1N=C(c2ccccc2F)c2cccc3c2N(CC3)C1=O)c1cc2ccccc2[nH]1
Reply: inactive

Task item: Then this molecule: COc1nc(C)nc(NC(=O)NS(=O)(=O)c2ccccc2Cl)n1
Reply: inactive

====

# method.notes: qHTS assay to identify small molecule antagonists of the estrogen related receptor signaling pathway with the pleiotropic PPARgamma coactivator (PGC) from Tox21 10K library - cell viability counter screen (AID 1224840); further: nearly all actives have a fitted effect of over 40% in size
# settings: PGC/ERR reporter cells viability, CellTiter-Fluor, 17.5 h; series mostly up to 92.4 µM
Results filed as inconclusive are left out. The source made the active and inactive calls. Calls follow the shape of the dose curve; as a rule, active = well fitted cell-killing curve with a large enough effect in the repeat runs (not every such curve was filed as active); inconclusive = weak or mixed curves, or effect the other way; inactive = no such curve, though single readings can be large or run the other way.
Would you mind answering with one of these outcomes? Yes for active, No for inactive

Task item: Could you please tell me the result logged for c1cc[n+]2c(c1)-c1cccc[n+]1CC2 in this assay?
Reply: No

Task item: Then this compound: O=C(N[C@@H]1N=C(c2ccccc2F)c2cccc3c2N(CC3)C1=O)c1cc2ccccc2[nH]1
Reply: No

Task item: Then this compound: CCCCCON=O
Reply: No

Task item: Then this compound: S=C=NCCc1ccccc1
Reply: No

Task item: Then this compound: C=CCBr
Reply: No

Task item: Then this compound: CCC(C)Br (stereo not drawn)
Reply: No

Task item: Then this compound: CCN(CC)Cc1nccn1-c1ccc([N+](=O)[O-])cc1C(=O)c1ccccc1Cl
Reply: No

Task item: Then this compound: Oc1cc(Cl)cc(Cl)c1
Reply: No

Task item: Then this compound: C1=CCC=C1
Reply: No

Task item: Then this compound: CCC(C)Nc1c([N+](=O)[O-])cc(C(C)(C)C)cc1[N+](=O)[O-] (stereo not drawn)
Reply: No

Task item: Then this compound: C#CCO
Reply: No

Task item: Then this compound: O=[N+]([O-])c1ccccc1-c1ccccc1
Reply: No

Task item: Then this compound: c1ccc(N=NNc2ccccc2)cc1
Reply: No

Task item: Then this compound: CCCCn1cc[n+](C)c1 (tested in a mixture with another compound)
Reply: No

Task item: Then this compound: ClC1(Cl)C2(Cl)C3(Cl)C4(Cl)C(Cl)(Cl)C5(Cl)C3(Cl)C1(Cl)C5(Cl)C24Cl (stereo not drawn)
Reply: No

Task item: Then this compound: Clc1ccc(C(Cl)(Cl)Cl)cc1Cl
Reply: No

Task item: Then this compound: O=P(Cl)(Cl)Cl
Reply: No

Task item: Then this compound: CC(=O)C(Cl)C(=O)N(C)C (stereo not drawn)
Reply: No

Task item: Then this compound: CCC1(CC)C(=O)N=C(O)NC1=O
Reply: No

Task item: Then this compound: O=C(N[C@H]1N=C(c2ccccc2F)c2cccc3c2N(CC3)C1=O)c1cc2ccccc2[nH]1
Reply: No

Task item: Then this compound: N#Cc1ccc(N(CC(N)=O)CC(F)(F)F)cc1C(F)(F)F
Reply: No

Task item: Then this compound: CCCCn1cc[n+](C)c1.[Cl][Fe-]([Cl])([Cl])[Cl]
Reply: No

Task item: Then this compound: CSC1=N[C@@](C)(c2ccccc2)C(=O)N1Nc1ccccc1
Reply: No

Task item: Then this compound: Oc1ccc([C@H]2CNCc3c2ccc(O)c3O)cc1O
Reply: No

Task item: Then this compound: OCC(Br)CBr (stereo not drawn)
Reply: No

Task item: Then this compound: CC(=O)[O-].CC(=O)[O-].[Co+2]
Reply: No

Task item: Then this compound: CCN1CCC2(CC1)COc1cc3c(cc12)N(C(=O)c1ccc(-c2ccc(-c4nnc(C)o4)cc2C)cc1)CC3
Reply: Yes

Task item: Then this compound: CC1CCCC1
Reply: No

====

# method.notes: qHTS RealTime-Glo MT Cell Viability Assay in HepG2 cells - 32 hour (AID 1224877); further: nearly all actives have a fitted effect of over 55% in size
# settings: RealTime-Glo luminescence; series mostly up to 76.8 µM
Results filed as inconclusive are left out. Active and inactive are the calls of the source. Calls come from the whole dose curve; as a rule, active = well fitted cell-killing curve with a large enough effect in the repeat runs; inconclusive = weak or mixed curves; inactive = flat fitted curve, though single readings scatter.
Would you mind answering with one of these outcomes? label 1 (active), label 0 (inactive)

Task item: Could you please tell me the result logged for CCCCN(CCCC)C(=S)S in this assay?
Reply: label 0

Task item: Then this compound: Oc1cccc(Cl)c1Cl
Reply: label 0

Task item: Then this compound: Brc1ccc(Oc2ccc(Br)cc2Br)c(Br)c1
Reply: label 0

Task item: Then this compound: N#CC(C#N)=NNc1cccc(Cl)c1
Reply: label 1

Task item: Then this compound: CCCCC(CC)COC(=O)c1ccccc1C(=O)OCC(CC)CCCC (centres undefined)
Reply: label 0

Task item: Then this compound: Cc1ccccc1OP(=O)(Oc1ccccc1C)Oc1ccccc1C
Reply: label 0

Task item: Then this compound: CSC(=O)c1c(C(F)F)nc(C(F)(F)F)c(C(=O)SC)c1CC(C)C
Reply: label 0

Task item: Then this compound: CC(C)(C)c1ccc(OP(=O)(Oc2ccccc2)Oc2ccccc2)cc1
Reply: label 0

Task item: Then this compound: Cc1ccc(C)c2ccccc12
Reply: label 0

Task item: Then this compound: Nc1nc(N)c(N)c(N)n1
Reply: label 0

Task item: Then this compound: ClSC(Cl)(Cl)Cl
Reply: label 0

Task item: Then this compound: COc1ccc2c(c1OC)C(=O)O[C@@H]2[C@H]1c2cc3c(cc2CCN1C)OCO3
Reply: label 0

Task item: Then this compound: Oc1cc(Cl)c(Cl)c(Cl)c1Cl
Reply: label 0

Task item: Then this compound: CC(C)C(Br)C(=O)NC(N)=O (centres undefined)
Reply: label 0

Task item: Then this compound: N#Cc1c[nH]cc1-c1cccc2c1OC(F)(F)O2
Reply: label 0

Task item: Then this compound: Oc1ccc(Cl)c(Cl)c1
Reply: label 0

Task item: Then this compound: C=CC(=C)C
Reply: label 0

Task item: Then this compound: O=[N+]([O-])[O-].[Tl+]
Reply: label 0

Task item: Then this compound: O=C(NC(=O)c1ccccc1Cl)Nc1ccc(OC(F)(F)F)cc1
Reply: label 0

Task item: Then this compound: O=c1[nH]c2cc(Cl)ccc2n1C1CCNCC1
Reply: label 0

Task item: Then this compound: CCOP(=O)(OCC)Oc1cc(C)nc(C(C)C)n1
Reply: label 0

Task item: Then this compound: CC(Cc1ccc(OCC(=O)O)cc1)NCC(O)c1csc(C(F)(F)F)n1 (centres undefined)
Reply: label 0

Task item: Then this compound: O=NN(CCO)CCO
Reply: label 0

Task item: Then this compound: [O]=[Cr][O][Cr]=[O]
Reply: label 0

Task item: Then this compound: COC(=O)c1ccccc1S(=O)(=O)NC(=O)Nc1nc(C)nc(OC)n1
Reply: label 0

Task item: Then this compound: Cc1c([N+](=O)[O-])cc2c(c1[N+](=O)[O-])C(C)(C)CC2(C)C
Reply: label 0

Task item: Then this compound: CC(=O)[O-].CC(=O)[O-].[Co+2]
Reply: label 0

Task item: Then this compound: [Cl][Hg][c]1ccccc1
Reply: label 1

Task item: Then this compound: CN(C)c1ccc(N)cc1
Reply: label 0

====

# method.notes: qHTS assay to identify small molecule that activate the aryl hydrocarbon receptor (AhR) signaling pathway - cell viability counter screen (AID 743086); further: nearly all actives have a fitted effect of over 45% in size
# settings: HepG2-AhR-luc viability, CellTiter-Fluor, 24 h; series mostly up to 70.3 µM
Inconclusive results are not listed. The source made the active and inactive calls. Calls follow the shape of the dose curve; as a rule, active = well fitted cell-killing curve with a large enough effect in the repeat runs; inconclusive = weak or mixed curves, or effect the other way; inactive = flat fitted curve, though single readings scatter.
Would you mind answering with one of these outcomes? Y (active), N (inactive)

Task item: Could you please tell me the result logged for O=c1c2ccccc2c(=O)c2c1cc(Cl)c1[nH]c3c([nH]c12)c(Cl)cc1c(=O)c2ccccc2c(=O)c13 in this assay?
Reply: N

Task item: Then this molecule: [C-]1=CC=CC1.[Cl][Zr+2][Cl].c1cc[cH-]c1
Reply: N

Task item: Then this molecule: CCCC[N+]1(C)CCCC1 (tested in a mixture with another compound)
Reply: N

Task item: Then this molecule: CCN1CCC2(CC1)COc1cc3c(cc12)N(C(=O)c1ccc(-c2ccc(-c4nnc(C)o4)cc2C)cc1)CC3
Reply: Y

Task item: Then this molecule: CC(Cc1ccc2c(c1)OCO2)NO (stereo not given)
Reply: N

Task item: Then this molecule: CCC(C)Nc1c([N+](=O)[O-])cc(C(C)(C)C)cc1[N+](=O)[O-] (stereo not given)
Reply: N

Task item: Then this molecule: Cc1ccc(C)c2ccccc12
Reply: N

Task item: Then this molecule: Cc1cnc2c(C(=O)O)c(Cl)ccc2c1
Reply: N

Task item: Then this molecule: CC(=O)[O][Sn]([c]1ccccc1)([c]1ccccc1)[c]1ccccc1
Reply: Y

Task item: Then this molecule: O=C1C[C@@H]2OCC=C3CN4CC[C@]56c7ccccc7N1[C@H]5[C@H]2[C@H]3C[C@H]46
Reply: N

Task item: Then this molecule: CCC(C)Br (stereo not given)
Reply: N

Task item: Then this molecule: C=CCBr
Reply: N

Task item: Then this molecule: Cc1cc(C2CC2)nc(Nc2ccccc2)n1
Reply: N

Task item: Then this molecule: Nc1ccccc1-c1ccccc1
Reply: N

Task item: Then this molecule: Oc1cc(Cl)c(Cl)c(Cl)c1Cl
Reply: N

Task item: Then this molecule: CN1[C@@H]2CC[C@H]1CC(O)C2 (stereo not given in full)
Reply: N

Task item: Then this molecule: CCO/N=C(\CC)C1=C(O)CC(c2c(C)cc(C)cc2C)CC1=O (stereo not given)
Reply: N

Task item: Then this molecule: CNC(=O)O/N=C(\C)C(C)S(C)(=O)=O (stereo not given)
Reply: N

Task item: Then this molecule: CCOP(=S)(OCC)SC(CCl)N1C(=O)c2ccccc2C1=O (stereo not given)
Reply: N

Task item: Then this molecule: CCOC(=O)Cc1ccccc1
Reply: N

Task item: Then this molecule: CCOP(=S)(NC(C)C)Oc1ccccc1C(=O)OC(C)C (stereo not given)
Reply: N

Task item: Then this molecule: O=[N+]([O-])[O-].[Tl+]
Reply: N

Task item: Then this molecule: Clc1ccc(C2(Cn3cncn3)OCCO2)c(Cl)c1
Reply: N

Task item: Then this molecule: CCCCC(CC)COC(=O)OOC(C)(C)C (stereo not given)
Reply: N

Task item: Then this molecule: c1ccc(Nc2ccc(Nc3ccccc3)cc2)cc1
Reply: N

Task item: Then this molecule: OCC(Br)CBr (stereo not given)
Reply: N

Task item: Then this molecule: CN
Reply: N

Task item: Then this molecule: ClCBr
Reply: N

Task item: Then this molecule: CC(=O)[O-].CC(=O)[O-].O.O.O.[Pb+2]
Reply: N

Task item: Then this molecule: COC(=O)/C=C(\C)OP(=O)(OC)OC
Reply: N

Task item: Then this molecule: C=C(C)C(=O)[O][Sn]([CH2]CCC)([CH2]CCC)[CH2]CCC
Reply: Y

Task item: Then this molecule: O=P(Cl)(Cl)Cl
Reply: N

Task item: Then this molecule: c1csc(-c2ccc(-c3cccs3)s2)c1
Reply: N

Task item: Then this molecule: CN/C(=N\[N+](=O)[O-])NCc1cnc(Cl)s1
Reply: N

Task item: Then this molecule: CCNc1nc(NC(C)C(C)C)nc(SC)n1 (stereo not given)
Reply: N

Task item: Then this molecule: CCCCCCCc1ccc(O)cc1
Reply: N

Task item: Then this molecule: O.O.O.O.O.O.O.O=S(=O)([O-])[O-].[Co+2]
Reply: N

Task item: Then this molecule: Cc1cccc(Cc2cnc[nH]2)c1C
Reply: N

Task item: Then this molecule: CCN(CC)C(=O)N[C@@H]1C=C2c3cccc4[nH]cc(c34)C[C@@H]2N(C)C1
Reply: N

Task item: Then this molecule: CC(=O)[O-].CC(=O)[O-].CC(=O)[O-].[Cr+3]
Reply: N

Task item: Then this molecule: CC(C)=CCN1CC[C@@]2(C)c3cc(O)ccc3C[C@@H]1[C@@H]2C
Reply: N

Task item: Then this molecule: Cc1c([N+](=O)[O-])c(C)c([N+](=O)[O-])c(C(C)(C)C)c1[N+](=O)[O-]
Reply: N

Task item: Then this molecule: Nc1cc(Cl)ccc1Cl
Reply: N

Task item: Then this molecule: BrCC(Br)(Br)Br
Reply: N

Task item: Then this molecule: O=C(Nc1ccc(F)cc1F)c1cccnc1Oc1cccc(C(F)(F)F)c1
Reply: N

Where these numbers come from: PubChem BioAssay (Tox21)
